src = patent US12344663

target: human complement C3 (human, UniProt P01024 23-1663); test: cell-based or functional assay
Sequence (P01024 23-1663 limits assumed): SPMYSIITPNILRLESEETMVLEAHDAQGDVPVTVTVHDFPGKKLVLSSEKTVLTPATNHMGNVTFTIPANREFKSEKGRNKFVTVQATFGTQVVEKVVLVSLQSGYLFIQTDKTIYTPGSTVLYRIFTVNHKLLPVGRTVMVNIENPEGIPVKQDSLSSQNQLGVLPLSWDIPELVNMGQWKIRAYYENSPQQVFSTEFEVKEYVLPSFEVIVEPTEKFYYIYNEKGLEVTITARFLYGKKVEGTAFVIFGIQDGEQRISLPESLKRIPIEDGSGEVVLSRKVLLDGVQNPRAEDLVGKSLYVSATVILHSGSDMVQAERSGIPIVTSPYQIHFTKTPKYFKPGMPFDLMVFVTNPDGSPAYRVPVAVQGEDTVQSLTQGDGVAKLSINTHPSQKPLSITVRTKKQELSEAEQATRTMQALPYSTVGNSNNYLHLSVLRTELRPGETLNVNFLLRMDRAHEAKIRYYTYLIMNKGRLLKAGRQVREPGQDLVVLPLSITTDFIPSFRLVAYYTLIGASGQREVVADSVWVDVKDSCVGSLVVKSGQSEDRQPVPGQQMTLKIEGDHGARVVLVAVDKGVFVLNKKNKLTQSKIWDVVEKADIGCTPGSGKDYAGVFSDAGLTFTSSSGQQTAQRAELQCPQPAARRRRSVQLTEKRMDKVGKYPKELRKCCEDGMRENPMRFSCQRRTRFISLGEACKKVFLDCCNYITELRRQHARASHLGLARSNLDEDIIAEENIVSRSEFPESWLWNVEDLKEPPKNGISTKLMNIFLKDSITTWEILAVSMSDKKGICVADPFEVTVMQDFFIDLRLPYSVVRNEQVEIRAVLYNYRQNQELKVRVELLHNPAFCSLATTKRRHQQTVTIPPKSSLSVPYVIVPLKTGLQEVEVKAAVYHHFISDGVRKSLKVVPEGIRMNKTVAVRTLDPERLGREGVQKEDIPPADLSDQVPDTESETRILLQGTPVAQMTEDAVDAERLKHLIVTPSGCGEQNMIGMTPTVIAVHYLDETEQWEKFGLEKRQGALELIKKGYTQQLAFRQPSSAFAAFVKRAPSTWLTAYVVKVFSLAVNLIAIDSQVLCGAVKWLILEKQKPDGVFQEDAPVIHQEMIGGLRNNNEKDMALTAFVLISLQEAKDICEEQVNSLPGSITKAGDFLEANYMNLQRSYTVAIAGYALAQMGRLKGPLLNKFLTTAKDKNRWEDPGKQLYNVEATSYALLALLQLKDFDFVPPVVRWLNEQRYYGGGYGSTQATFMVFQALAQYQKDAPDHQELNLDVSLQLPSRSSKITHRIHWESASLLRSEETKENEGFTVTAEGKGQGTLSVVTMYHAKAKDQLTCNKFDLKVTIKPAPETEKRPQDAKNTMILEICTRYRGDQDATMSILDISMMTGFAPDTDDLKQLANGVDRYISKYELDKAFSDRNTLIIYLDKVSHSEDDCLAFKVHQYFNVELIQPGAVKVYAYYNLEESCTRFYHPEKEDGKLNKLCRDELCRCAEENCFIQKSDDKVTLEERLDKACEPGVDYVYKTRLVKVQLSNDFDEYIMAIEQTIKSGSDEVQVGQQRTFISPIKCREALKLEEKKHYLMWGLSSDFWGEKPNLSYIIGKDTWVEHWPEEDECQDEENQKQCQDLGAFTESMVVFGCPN
Hi there, I'd appreciate the recorded IC50 (nM), Alternative Pathway, MAC deposition (WEISLAB, human serum) for every entry that follows.
Dear colleague, please return just the value in nM, with no unit written.

Query: IC50 (nM), Alternative Pathway, MAC deposition (WEISLAB, human serum); subject: Clone III (scFv, also called scFv of the invention) scFv: MQLVLTQSPSASASLGASVKLTCTLSSAHKTYTIDWYQQQPEKCPRYLMQLKSEGSYTKGSGIPDRFSGSSSGAERYLTISSLQSEDEADYYCGTEGVGGYVFGGGTKLTVLGGGGGSGGGGSGGGGSGGGGSQVQLVESGGGSVQPGRSLRLSCAASGFTFSNYAMNWVRQAPGKGLEWVAIINVGGGTNYADSVKGRFTISRDNSKNTLYLQMNSLRAEDTASYYCARAVGYHHARLDPWGCGTSVTVSS
349

Clone II (scFv, also called scFv of the invention) scFv: MQLVLTQSPSASASLGASVKLTCTLSSAHKTYTIDWYQQQPEKCPRYLMQLKSDGSYTKGSGIPDRFSGSSSGAERYLTISSLQSEDEADYYCGTEGVGGYVFGGGTKLTVLGGGGGSGGGGSGGGGSGGGGSQVQLVESGGGSVQPGRSLRLSCAASGFTFSNYAMNWVRQAPGKGLEWVAIINVGGGTNYADSVKGRFTISRDNSKNTLYLQMNSLRAEDTASYYCARAVGYHHARLDPWGCGTSVTVSS , same question.
360

Comparative Compound A3 (antibody, human IgG1, kappa, V domains shown) VH: QVQLVQSGAEVKKPGASVKVSCKASGYTFTDFYMDWVRQAPGQRLEWMGYIYPHNGGTTYNQQFTGRVTITVDKSASTAYMELSSLRSEDTAVYYCARRGGFDFDYWGQGTLVTVSS VL: DIQMTQSPSSLSASVGDRVTITCKASENVDTYVSWYQQKPGKAPKLLIYGASNRYTGVPSRFSGSGSGTDFTFTISSLQPEDIATYHCGQSHSYPLTFGQGTKLEIKR , same question.
548

Clone I (scFv, also called exemplary antibody of the invention (Clone I); scFv of the invention) scFv: MQLVLTQSPSASASLGASVKLTCTLSSAHKTYTIDWYQQQPEKCPRYLMQLKSDGSYTKGSGIPDRFSGSSSGAERYLTISSLQSEDEADYYCGTEGVGGYVFGGGTKLTVLGGGGGSGGGGSGGGGSGGGGSQVQLVESGGGSVQPGRSLRLSCAASGFTFSNYAMNWVRQAPGKGLEWVAVISYDGSNKYYADSVKGRFTISRDNSKNTLYLQMNSLRAEDTASYYCARAVGYHHARLDPWGCGTSVTVSS , same question.
344
